# protocolConditions: pH 7.8
metric: logp [b]

Please review the following examples before continuing.
compound: Cc1cc(C(F)F)nn1CC(=O)N1CCC(c2nc(C3=NOC(C)(c4ccccc4OS(C)(=O)=O)C3)cs2)CC1 (racemic)
logp [b]: 2.8[b]

compound: Cc1cc(C(F)(F)F)nn1CC(=O)N1CCC(c2nc(C3=NOC(c4ccccc4NC=O)C3)cs2)CC1 (centres unmarked)
logp [b]: 2.39[b]

compound: Cc1ccc(C2CC(c3csc(C4CCN(C(=O)Cn5nc(C(F)(F)F)cc5C)CC4)n3)=NO2)c(OCC#N)c1 (centres unmarked)
logp [b]: 3.22[b]

Batch request: logp [b] for each of the following compounds.
1. O=CNc1ccccc1C1CC(c2csc(C3CCN(C(=O)Cc4cc(C(F)F)ccc4C(F)F)CC3)n2)=NO1 (centres unmarked)
2. CCS(=O)(=O)Oc1ccccc1C1CC(c2csc(C3CCN(C(=O)Cn4nc(C(F)(F)F)cc4C)CC3)n2)=NO1 (centres unmarked)
3. CS(=O)(=O)Oc1c(F)cccc1C1CC(c2csc(C3CCN(C(=O)Cn4nc(C(F)F)cc4C(F)F)CC3)n2)=NO1 (centres unmarked)
4. CC1(c2ccccc2OS(C)(=O)=O)CC(c2csc(C3CCN(C(=O)Cn4nc(C(F)F)cc4C(F)F)CC3)n2)=NO1 (racemic)

1. 2.64[b]
2. 3.21[b]
3. 2.91[b]
4. 3.09[b]

----------
# protocolConditions: pH 2.7
metric: logp [a]

The examples below pair each entry with its known result.
compound: CCON=Cc1ccccc1C1CC(c2csc(C3CCN(C(=O)Cn4nc(C(F)(F)F)cc4C)CC3)n2)=NO1 (mixture of isomers) [I-29]
result: 4[a]

compound: CS(=O)(=O)Oc1c(F)cccc1C1CC(c2csc(C3CCN(C(=O)Cn4nc(C(F)F)cc4C(F)F)CC3)n2)=NO1 (stereo not shown) [I-85]
result: 2.97[a],

compound: COc1cccc(OS(C)(=O)=O)c1C1(C)CC(c2csc(C3CCN(C(=O)Cn4nc(C(F)F)cc4C(F)F)CC3)n2)=NO1 (stereo not shown) [I-88]
result: 3.17[a],

What measured logp [a] goes with COCCS(=O)(=O)Cc1ccccc1C1CC(c2csc(C3CCN(C(=O)Cn4nc(C(F)(F)F)cc4C)CC3)n2)=NO1 (racemic) [I-45] ?
3.64[a]

----------
# Tested on: Phytophthora infestans
# Format: in vivo
# protocolConditions: tomato plants, protective spray, active ingredient concentration 100 ppm, evaluation 7 days after inoculation; 0% = control, 100% = no infection
metric: Eff. % (%)
Give bare numbers, in %.

Worked set:
compound: Cc1ccc(Cl)cc1NC(=O)N1CCC(c2nc(C3=NOC(c4cccc(C=NOC(C)C)c4)C3)cs2)CC1 (mixture of isomers)
Eff. %, %: 100
//
compound: CCON=Cc1ccccc1C1CC(c2csc(C3CCN(C(=O)Nc4cc(Cl)ccc4C)CC3)n2)=NO1 (mixture of isomers)
Eff. %, %: 100
//
compound: O=C(Cn1nc(C(F)F)cc1C(F)F)N1CCC(c2nc(C3=NOC(c4ccccc4OCC#Cc4cccc5ccccc45)C3)cs2)CC1 (stereo not drawn)
Eff. %, %: 100

Need Eff. % for each of these compounds.
1. CON=Cc1cccc(C2CC(c3csc(C4CCN(C(=O)Cn5nc(C(F)(F)F)cc5C)CC4)n3)=NO2)c1 (mixture of isomers)
2. CC(=NOC(C)C)c1ccccc1C1CC(c2csc(C3CCN(C(=O)Cn4nc(C(F)(F)F)cc4C)CC3)n2)=NO1 (mixture of isomers)
3. Cc1cc(C(F)(F)F)nn1CC(=O)N1CCC(c2nc(C3=NOC(c4ccccc4OS(C)(=O)=O)C3)cs2)CC1 (racemic)

1. 100
2. 100
3. 89

----------
# protocolConditions: pH 2.7
For each record, write down the corresponding logp [a].

Provide logp [a] values for the following items, in order.
1. N#CCN(C=O)c1ccccc1C1CC(c2csc(C3CCN(C(=O)Cn4nc(C(F)F)cc4C(F)F)CC3)n2)=NO1 (stereo not shown)
2. CCS(=O)(=O)Oc1cccc(C2CC(c3csc(C4CCN(C(=O)Cn5nc(C(F)(F)F)cc5C)CC4)n3)=NO2)c1 (stereo not shown)
3. CCS(=O)(=O)Oc1cccc(C2CC(c3csc(C4CCN(C(=O)Cn5nc(C(F)F)cc5C(F)F)CC4)n3)=NO2)c1 (stereo not shown)
4. O=C(Cn1nc(C(F)F)cc1C(F)F)N1CCC(c2nc(C3=NOC(c4cccc(OCC#Cc5cccc6ccccc56)c4)C3)cs2)CC1 (stereo not shown)
5. Cc1ccc(C2CC(c3csc(C4CCN(C(=O)Cn5nc(C(F)F)cc5C(F)F)CC4)n3)=NO2)c(OCC#N)c1 (stereo not shown)
6. Cc1cc(C(F)F)nn1CC(=O)N1CCC(c2nc(C3=NOC(c4ccccc4OS(C)(=O)=O)C3)cs2)CC1 (racemic)
7. N#CCOc1cccc(F)c1C1CC(c2csc(C3CCN(C(=O)Cn4nc(C(F)F)cc4C(F)F)CC3)n2)=NO1 (stereo not shown)

["2.62[a],", "3.18[a],", "3.08[a],", "4.6[a],", "3.15[a],", "2.59[a],", "2.87[a],"]

----------
Consider the following molecules; for each one, report its Eff. %.
# Tested on: Phytophthora infestans
# Format: in vivo
# protocolConditions: tomato plants, protective spray, active ingredient concentration 100 ppm, evaluation 7 days after inoculation; 0% = control, 100% = no infection
The reply must contain the numeric value and, after it, the unit.

Known results for molecules:
molecule: C=CCOCc1ccccc1C1CC(c2csc(C3CCN(C(=O)Cn4nc(C(F)F)cc4C(F)F)CC3)n2)=NO1 (stereo not drawn) [I-94]
targetDesc: Phytophthora infestans
result: 100%
//
molecule: Cc1cc(C(F)(F)F)nn1CC(=O)N1CCC(c2nc(C3=NOC(c4cccc(F)c4OS(=O)(=O)C4CC4)C3)cs2)CC1 (stereo not drawn)
targetDesc: Phytophthora infestans
result: 94%
//
molecule: CS(=O)(=O)Oc1c(F)cccc1C1CC(c2csc(C3CCN(C(=O)Cn4nc(C(F)F)cc4C(F)F)CC3)n2)=NO1 (stereo not drawn)
targetDesc: Phytophthora infestans
result: 75%
//
molecule: O=C(Cn1nc(C(F)F)cc1C(F)F)N1CCC(c2nc(C3=NOC(c4ccccc4C=NO)C3)cs2)CC1 (mixture of isomers) [I-35]
targetDesc: Phytophthora infestans
result: 95%
//
molecule: Cc1cc(C(F)(F)F)nn1CC(=O)N1CCC(c2nc(C3=NOC(c4cccc(F)c4OCC#N)C3)cs2)CC1 (stereo not drawn)
targetDesc: Phytophthora infestans
result: 98%
//
molecule: O=C(Cn1nc(C(F)F)cc1C(F)F)N1CCC(c2nc(C3=NOC(c4ccccc4C=NO)C3)cs2)CC1 (mixture of isomers) [I-4]
targetDesc: Phytophthora infestans
result: 100%

Hey, quick one: what's Eff. % for each of these?
1. CON=C(C)c1cccc(C2CC(c3csc(C4CCN(C(=O)Nc5cc(Cl)ccc5C)CC4)n3)=NO2)c1 (mixture of isomers)
2. CCNC(=O)Oc1ccccc1C1CC(c2csc(C3CCN(C(=O)Cn4nc(C(F)F)cc4C(F)F)CC3)n2)=NO1 (stereo not drawn)
3. C=CC(=O)Oc1ccccc1C1CC(c2csc(C3CCN(C(=O)Cn4nc(C(F)F)cc4C(F)F)CC3)n2)=NO1 (stereo not drawn)
4. N#CCOc1ccc(C2CC(c3csc(C4CCN(C(=O)Cn5nc(C(F)F)cc5C(F)F)CC4)n3)=NO2)cc1 (stereo not drawn)

1: 100%; 2: 93%; 3: 98%; 4: 100%

----------
# protocolConditions: pH 2.7
Give measured logp [a] for each item. Keep answers brief.

Solved cases (5 shown):
molecule: Cc1ccc(C2CC(c3csc(C4CCN(C(=O)Cn5nc(C(F)(F)F)cc5C)CC4)n3)=NO2)c(OS(C)(=O)=O)c1 (stereo not shown) [I-66]
logp [a]: 3.26[a],
--
molecule: Cc1cc(C(F)(F)F)nn1CC(=O)N1CCC(c2nc(C3=NOC(c4ccc(OS(=O)(=O)C5CC5)cc4)C3)cs2)CC1 (stereo not shown) [I-98]
logp [a]: 3.22[a],
--
molecule: CS(=O)(=O)Oc1ccc(Cl)cc1C1CC(c2csc(C3CCN(C(=O)Cn4nc(C(F)F)cc4C(F)F)CC3)n2)=NO1 (racemic) [I-59]
logp [a]: 3.27[a],
--
molecule: C=CCOCc1ccccc1C1CC(c2csc(C3CCN(C(=O)Cn4nc(C(F)F)cc4C(F)F)CC3)n2)=NO1 (stereo not shown) [I-139]
logp [a]: 4.11[a]
--
molecule: C[Si](C)(C)C#Cc1ccccc1C1CC(c2csc(C3CCN(C(=O)Cn4nc(C(F)F)cc4C(F)F)CC3)n2)=NO1 (stereo not shown) [I-133]
logp [a]: 4.78[a],

Provide logp [a] for all items below, preserving their order.
1. CC(=O)OCc1cccc(F)c1C1CC(c2csc(C3CCN(C(=O)Cn4nc(C(F)F)cc4C(F)F)CC3)n2)=NO1 (stereo not shown) [I-69]
2. Cc1ccc(C2CC(c3csc(C4CCN(C(=O)Cn5nc(C(F)F)cc5C(F)F)CC4)n3)=NO2)c(OS(C)(=O)=O)c1 (stereo not shown) [I-72]

["3.12[a]", "3.2[a],"]
